Give measured Percent Effect for each item. Keep answers brief.
System: Wolbachia pipientis
assay comment: Anti-Wolbachia Cell-Based Screen
Assay type: functional
Parameters: scale not given: in the data most compounds retested in dose-response had high values
condition notes: 5 µM
In all, about 48,000 compounds went through this assay and about 13,000 (27%) showed an effect of 50% or more. The list shows a part of the results.
Please provide the amount together with its unit, number first.

Some solved cases for reference:
O=C(Nc1c(N2CCCC2)cccc1N1CCCC1)c1ccccn1: -1.766%
O=C(Cc1ccc(F)cc1Cl)N[C@@H]1CCNC[C@H]1O: 6.286%
C/C(NC(=O)c1cccs1)=C1\C(=O)C[C@@H]2[C@H]1C2(C)C: 112.6%
COCCCN1CCC(N(Cc2noc(C)n2)C(C)=O)C1 (stereo not drawn): 116.1%
CCN1CCOC(CNCc2ccccn2)C1 (stereo not drawn): 1.335%

# map each compound to its Percent Effect
1. CCc1cnc(CCNS(C)(=O)=O)s1
2. O=C(O)c1ccnc(-c2ccnc(NCCc3ccc(F)cc3)n2)c1
3. CCCS(=O)(=O)NCc1ncc(C)c(OC)c1C
4. CN(C)CCn1c(=O)oc2ccc(NC(=O)CC(C)(C)C)cc21
5. CCc1ccccc1OCCN1CCC(NS(C)(=O)=O)CC1
6. Cc1nc(CNCC2CCCN(C(=O)OC(C)(C)C)C2)cs1 (stereo not drawn)

Result:
1. 96.32%
2. -8.109%
3. 21.89%
4. 14.89%
5. 2.392%
6. 4.206%

# map each compound to its Percent Effect
1. CCCS(=O)(=O)NCCc1ncc(CC)s1
2. C/C(NC(=O)c1ccccn1)=C1\C(=O)C[C@@H]2[C@H]1C2(C)C
3. COc1ccnc(NCC2CN(C3CC3)CCO2)n1 (stereo not drawn)
4. OC1CCN(C2CCN(Cc3cccc(Cn4cccn4)c3)CC2)CC1
5. O=C1CNc2ncnc(Nc3cccc(Cn4cccn4)c3)c2N1
6. CCCS(=O)(=O)NCCc1ncc(C)s1
7. COCCCN(C)C1CCCN(Cc2noc(C)n2)C1 (stereo not drawn)
8. Cc1ccc(C(=O)N2C[C@@H]3[C@@H](C2)OCC(=O)N3Cc2cccnc2)o1.O=C(O)C(F)(F)F

Result:
98.37%
103%
0.4171%
19.22%
129.6%
113.4%
-3.028%
-3.343%

# map each compound to its Percent Effect
1. CCN1CCOC(CNCc2csc(C)n2)C1 (stereo not drawn)
2. Cc1ccc2c(n1)N(CCN(C)C)CCN(C(=O)c1ccoc1)C2.O=C(O)C(F)(F)F.O=C(O)C(F)(F)F
3. O=C(Cc1cccc(O)c1)NCCNc1nccc(C(F)(F)F)n1

Result:
88.2%
2.564%
-3.193%

# map each compound to its Percent Effect
1. CC(C)n1cccc1C(=O)N1CC[C@@H](NC(=O)c2ccccn2)[C@H](O)C1
2. Cc1cc(C)nc(CCNc2nccc(CCC(F)(F)F)n2)n1
3. CCN1CCOC(CNCc2ccc(C)s2)C1 (stereo not drawn)
4. Cc1cc(C)c(CNC(=O)NCCc2cccnc2)c(=O)[nH]1
5. COc1ncc(CN(C)C2CCN(C(C)C)CC2)cn1

Result:
9.129%
-9.076%
96.42%
-5.274%
134.1%

----------
System: Wolbachia pipientis
assay comment: Anti-Wolbachia Cell-Based Screen
Assay type: functional
Set-up: scale not given: in the data most compounds retested in dose-response had high values
condition notes: 5 µM
The campaign covered roughly 48,000 compounds. About 13,000 (27%) showed an effect of 50% or more. The list shows a part of the results.
measured quantity: Percent Effect (%)
One number for each entry, in %.

Some solved cases for reference:
O=C(CN1CCCS1(=O)=O)NCCOc1ccc2c(c1)CCC2: -4.434
Cc1cc(=O)[nH]c(=O)n1Cc1ccccc1: -6.606
CN(Cc1ncnn1C)c1ccnc(Cc2ccccc2)n1: -0.8819

# map each compound to its Percent Effect
1. CCN(CC)S(=O)(=O)CCNc1nnc(C(C)C)s1
2. Cn1cccc(NC(=O)NCCOCc2ccccc2)c1=O
3. O=C(C1CCC1)N1CCc2[nH]cnc2C12CCN(C1CCOCC1)CC2

Result:
[4.911, -14.44, 2.513]
